- Study System: human TLR8 (Homo sapiens, UniProt Q9NR97)
- Sequence (Q9NR97 27-1041): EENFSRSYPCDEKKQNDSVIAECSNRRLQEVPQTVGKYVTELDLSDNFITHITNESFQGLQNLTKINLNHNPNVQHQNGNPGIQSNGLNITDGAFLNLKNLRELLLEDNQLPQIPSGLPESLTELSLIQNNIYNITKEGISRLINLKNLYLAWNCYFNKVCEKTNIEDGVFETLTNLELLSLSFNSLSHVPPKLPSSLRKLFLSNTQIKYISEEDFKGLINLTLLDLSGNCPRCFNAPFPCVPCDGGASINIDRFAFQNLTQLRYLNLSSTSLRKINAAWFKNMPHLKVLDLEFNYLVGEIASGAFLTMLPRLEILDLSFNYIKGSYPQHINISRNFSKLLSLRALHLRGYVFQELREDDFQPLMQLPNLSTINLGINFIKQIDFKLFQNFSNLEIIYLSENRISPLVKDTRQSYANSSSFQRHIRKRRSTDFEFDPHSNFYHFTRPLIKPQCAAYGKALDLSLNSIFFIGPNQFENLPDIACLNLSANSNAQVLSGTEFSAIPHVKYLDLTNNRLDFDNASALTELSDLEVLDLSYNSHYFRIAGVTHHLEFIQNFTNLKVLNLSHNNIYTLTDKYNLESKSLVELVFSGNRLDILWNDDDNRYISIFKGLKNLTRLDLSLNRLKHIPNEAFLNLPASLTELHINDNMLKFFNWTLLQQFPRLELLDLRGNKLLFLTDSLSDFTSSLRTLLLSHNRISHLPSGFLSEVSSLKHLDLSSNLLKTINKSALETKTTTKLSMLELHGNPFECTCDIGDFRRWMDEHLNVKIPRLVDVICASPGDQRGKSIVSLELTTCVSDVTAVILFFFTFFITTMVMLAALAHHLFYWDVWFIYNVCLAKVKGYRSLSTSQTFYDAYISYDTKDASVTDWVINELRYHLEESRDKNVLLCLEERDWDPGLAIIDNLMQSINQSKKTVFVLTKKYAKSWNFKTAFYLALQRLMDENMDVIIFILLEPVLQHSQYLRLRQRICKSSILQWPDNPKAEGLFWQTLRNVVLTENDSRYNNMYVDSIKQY
- Protocol Details: HEK-Blue human TLR8 cells NF-κB SEAP reporter assay
- Cond: stimulation for 20 hours, Quanti Blue 640 nm
Provide the reported EC50 of each item.
Quick note: give the figure in nM, leave out the unit.

Query :: Entry CCCN(CCC)C(=O)C1=Cc2ccc(C(=O)NC3CC(CNc4ccccc4)C3)cc2N=C(N)C1 (stereo not shown) has what EC50?
Result :: 7

Query :: Entry "CCCN(CCC)C(=O)C1=Cc2ccc(C(=O)NCc3ccon3)cc2N=C(N)C1" has what EC50?
Result :: 12

Query :: Entry "CCCN(CCC)C(=O)C1=Cc2ccc(C(=O)N[C@H]3C[C@@H]3c3ccccc3)cc2N=C(N)C1" has what EC50?
Result :: 2

Query :: Entry "CCCN(CCC)C(=O)C1=Cc2ccc(C(=O)NC3(c4ccccc4)CCC3)cc2N=C(N)C1" has what EC50?
Result :: 7
